# Tested on: U-87 MG
# run.description: Induction of cell cycle arrest in human U87MG cells assessed as accumulation in G2/M phase at 1 uM incubated for 48 hrs by propidium iodide staining based flow cytometry analysis (reference value: 28.9 +/- 2.1 %)
# Format: functional, U-87MG ATCC
# study.conditions: dose microM 1-10
# note: exactly 80% is not below, so it is Not fulfilled; use Fulfilled for Activity strictly under it

Here's what some known entries look like.
CNC(=O)c1ccccc1Nc1nc(Nc2ccc(CNc3c(NCCNC(=O)/C(C#N)=C/C4CC4)c(=O)c3=O)cc2)ncc1Cl; Not fulfilled
CNC(=O)c1ccccc1Nc1nc(Nc2ccc(N3CCOCC3)cc2OC)ncc1Cl; Fulfilled

We next turn to a different compound, shown below.
Report whether reported Activity is lower than 80% (strictly) for C=CC(=O)NCCNc1c(NCc2ccc(Nc3ncc(C(F)(F)F)c(Nc4ccccc4C(=O)NC)n3)cc2)c(=O)c1=O
Fulfilled

* * *

Provide the recorded inhibition for the entries that follow.
# assay.target: Platelet-derived growth factor receptor alpha (Homo sapiens) (UniProt P16234)
# Sequence (P16234 whole entry): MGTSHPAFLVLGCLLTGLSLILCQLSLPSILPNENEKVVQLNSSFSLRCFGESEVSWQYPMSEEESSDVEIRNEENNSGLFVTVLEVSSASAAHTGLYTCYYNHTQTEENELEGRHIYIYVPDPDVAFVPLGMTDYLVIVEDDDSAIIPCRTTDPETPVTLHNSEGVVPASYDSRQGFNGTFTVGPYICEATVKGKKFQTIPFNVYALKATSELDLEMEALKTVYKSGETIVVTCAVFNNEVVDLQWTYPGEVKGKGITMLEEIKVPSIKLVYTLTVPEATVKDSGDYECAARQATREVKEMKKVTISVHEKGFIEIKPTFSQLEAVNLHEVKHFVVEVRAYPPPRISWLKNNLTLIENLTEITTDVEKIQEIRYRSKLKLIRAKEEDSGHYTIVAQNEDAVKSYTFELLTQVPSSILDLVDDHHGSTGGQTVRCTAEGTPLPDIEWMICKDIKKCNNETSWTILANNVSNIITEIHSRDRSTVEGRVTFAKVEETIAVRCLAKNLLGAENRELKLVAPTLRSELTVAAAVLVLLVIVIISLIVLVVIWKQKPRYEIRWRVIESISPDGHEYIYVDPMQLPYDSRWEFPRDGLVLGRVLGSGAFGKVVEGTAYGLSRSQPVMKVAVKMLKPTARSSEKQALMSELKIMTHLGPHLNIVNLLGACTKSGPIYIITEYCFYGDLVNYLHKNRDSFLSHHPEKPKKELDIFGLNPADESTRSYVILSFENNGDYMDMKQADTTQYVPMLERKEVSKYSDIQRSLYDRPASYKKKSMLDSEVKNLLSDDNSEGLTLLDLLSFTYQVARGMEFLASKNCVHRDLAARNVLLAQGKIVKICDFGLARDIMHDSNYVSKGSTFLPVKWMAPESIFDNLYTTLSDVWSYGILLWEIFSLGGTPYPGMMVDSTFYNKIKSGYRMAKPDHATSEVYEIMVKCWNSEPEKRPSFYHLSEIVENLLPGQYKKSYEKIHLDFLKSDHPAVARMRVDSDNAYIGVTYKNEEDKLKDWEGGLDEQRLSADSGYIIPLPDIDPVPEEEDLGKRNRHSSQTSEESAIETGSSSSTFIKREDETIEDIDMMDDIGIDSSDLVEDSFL
# run.description: Inhibition of human recombinant PDGFRA at 100 nM by [gamma-33ATP] radiometric assay relative to control
Numbers only, in %.

Known inhibition results, listed for orientation:
C=CC(=O)NCCNc1c(NCc2ccc(Nc3ncc(C(F)(F)F)c(Nc4ccccc4C(=O)NC)n3)cc2)c(=O)c1=O; 78.4
CNC(=O)c1ccccc1Nc1nc(Nc2ccc(CNc3c(NCCNC(=O)/C(C#N)=C/C(C)C)c(=O)c3=O)cc2)ncc1Cl; 67.5
C=CC(=O)NCCNc1c(NCc2ccc(Nc3ncc(Cl)c(NCc4cccnc4N(C)S(C)(=O)=O)n3)cc2)c(=O)c1=O; 12.5

// moving on: another record for inhibition
Summary for this compound, C=CC(=O)NCCNc1c(NCc2ccc(Nc3ncc(Cl)c(Nc4ccccc4C(=O)NC)n3)cc2)c(=O)c1=O : inhibition is 91

* * *

# Test system: U-251
# run.description: Cytotoxicity against human U251 cells assessed as reduction in cell viability incubated for 48 hrs by MTT assay
# study.conditions: U-251, 48 h
value.type: IC50 (µM)
Numbers only, in µM.

Known IC50 results, listed for orientation:
C=CC(=O)NCCNc1c(NCc2ccc(Nc3ncc(Cl)c(Nc4ccccc4C(=O)NC)n3)cc2)c(=O)c1=O; 0.22
CNC(=O)c1ccccc1Nc1nc(Nc2ccc(N3CCOCC3)cc2OC)ncc1Cl; 6.3
CNC(=O)c1ccccc1Nc1nc(Nc2ccc(CNc3c(NCCNC(=O)/C(C#N)=C/C4CC4)c(=O)c3=O)cc2)ncc1Cl; 1.2
C=CC(=O)NCCNc1c(NCc2ccc(Nc3ncc(C(F)(F)F)c(Nc4ccccc4C(=O)NC)n3)cc2)c(=O)c1=O; 0.15

// moving on: another record for IC50
Summary for this compound, CNC(=O)c1ccccc1Nc1nc(Nc2ccc(CNc3c(NCCNC(=O)/C(C#N)=C/C(C)C)c(=O)c3=O)cc2)ncc1Cl : IC50 is 9.8

* * *

# assay.target: Focal adhesion kinase 1 (Homo sapiens, UniProt Q05397)
# Sequence (Q05397 whole entry, the tested form may be a part): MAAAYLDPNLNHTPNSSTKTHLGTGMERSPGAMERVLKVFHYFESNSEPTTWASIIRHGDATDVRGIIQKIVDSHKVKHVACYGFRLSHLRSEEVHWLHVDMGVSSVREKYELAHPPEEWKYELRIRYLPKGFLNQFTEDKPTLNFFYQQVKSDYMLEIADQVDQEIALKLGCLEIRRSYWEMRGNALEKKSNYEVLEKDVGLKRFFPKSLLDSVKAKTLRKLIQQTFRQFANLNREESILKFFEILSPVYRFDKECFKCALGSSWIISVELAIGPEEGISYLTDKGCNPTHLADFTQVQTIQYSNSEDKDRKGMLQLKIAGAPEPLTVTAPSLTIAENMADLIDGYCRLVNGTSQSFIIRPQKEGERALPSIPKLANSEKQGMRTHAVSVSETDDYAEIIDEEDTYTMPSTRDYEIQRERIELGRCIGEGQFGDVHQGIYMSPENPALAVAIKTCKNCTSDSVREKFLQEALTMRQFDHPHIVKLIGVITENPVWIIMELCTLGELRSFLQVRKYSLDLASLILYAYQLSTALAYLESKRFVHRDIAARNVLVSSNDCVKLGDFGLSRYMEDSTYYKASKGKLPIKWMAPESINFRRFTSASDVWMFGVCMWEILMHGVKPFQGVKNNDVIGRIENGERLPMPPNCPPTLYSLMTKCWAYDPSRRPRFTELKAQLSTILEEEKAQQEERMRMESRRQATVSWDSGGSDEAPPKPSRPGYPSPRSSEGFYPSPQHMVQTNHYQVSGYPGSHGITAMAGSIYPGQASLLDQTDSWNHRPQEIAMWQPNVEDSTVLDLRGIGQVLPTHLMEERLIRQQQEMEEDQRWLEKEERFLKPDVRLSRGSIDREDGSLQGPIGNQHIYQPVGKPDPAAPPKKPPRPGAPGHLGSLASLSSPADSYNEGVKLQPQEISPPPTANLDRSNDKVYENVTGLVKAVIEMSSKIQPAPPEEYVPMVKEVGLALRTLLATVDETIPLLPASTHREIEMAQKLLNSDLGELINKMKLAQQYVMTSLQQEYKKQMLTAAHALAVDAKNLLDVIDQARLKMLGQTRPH
# run.description: Inhibition of recombinant human N-terminal His-tagged FAK (393 to 698 residues) expressed in baculovirus infected Sf9 insect cells using Poly (4:1 Glu, Tyr) as substrate measured after 1 hr by ADP-glo luminescence assay
Provide the recorded IC50 for the entries that follow.

C=CC(=O)NCCNc1c(NCc2ccc(Nc3ncc(Cl)c(Nc4ccccc4C(=O)NC)n3)cc2)c(=O)c1=O; 0.6 nM

For each entry beneath this line, provide reported IC50.
1. C=CC(=O)NCCNc1c(NCc2ccc(Nc3ncc(C(F)(F)F)c(Nc4ccccc4C(=O)NC)n3)cc2)c(=O)c1=O
2. CNC(=O)c1ccccc1Nc1nc(Nc2ccc(CNc3c(NCCNC(=O)/C(C#N)=C/C(C)C)c(=O)c3=O)cc2)ncc1Cl
3. C=CC(=O)NCCNc1c(NCc2ccc(Nc3ncc(Cl)c(NCc4cccnc4N(C)S(C)(=O)=O)n3)cc2)c(=O)c1=O

1: 6.8 nM; 2: 1.2 nM; 3: 5.5 nM
